- Test system: LNCaP
- protocol-details: Cytotoxicity against human LNCAP cells assessed as growth inhibition after 72 hrs by MTS assay
- Assay type: functional, cell-based
Here the recorded pIC50 is given for each entry.
Expect pIC50 as a plain number equal to -log10 of the molar concentration.

For orientation, consider the following solved cases.
[
  {
    "test-smiles": "CCN(CC)CCNC(=O)c1ccc(-c2cn(CCCCCC(=O)NO)nn2)cn1",
    "readout-number": 4.98
  },
  {
    "test-smiles": "CCN(CC)CCNC(=O)c1ccc(-c2cn(CCCCCCC(=O)NO)nn2)cn1",
    "readout-number": 5.82
  },
  {
    "test-smiles": "CCN(CC)CCNC(=O)c1ccc(-c2cn(CCCCCCC(=O)NO)nn2)cc1",
    "readout-number": 5.92
  },
  {
    "test-smiles": "CCN(CC)CCNC(=O)c1ccc(C(=O)ONC(=O)CCCCCn2cc(-c3ccc4cc(OC)ccc4c3)nn2)cc1",
    "readout-number": 5.19
  },
  {
    "test-smiles": "CCN(CC)CCNC(=O)c1ccc(-c2cn(CCCCCCCC(=O)NO)nn2)cc1",
    "readout-number": 5.52
  }
]

Kindly consider the entry below.
Q. Recorded pIC50 for COc1ccc2cc(-c3cn(CCCCCC(=O)NO)nn3)ccc2c1 , please?
A. 5.29

====

- target-desc: UniProt Q9UBN7
- Sequence (Q9UBN7 whole entry): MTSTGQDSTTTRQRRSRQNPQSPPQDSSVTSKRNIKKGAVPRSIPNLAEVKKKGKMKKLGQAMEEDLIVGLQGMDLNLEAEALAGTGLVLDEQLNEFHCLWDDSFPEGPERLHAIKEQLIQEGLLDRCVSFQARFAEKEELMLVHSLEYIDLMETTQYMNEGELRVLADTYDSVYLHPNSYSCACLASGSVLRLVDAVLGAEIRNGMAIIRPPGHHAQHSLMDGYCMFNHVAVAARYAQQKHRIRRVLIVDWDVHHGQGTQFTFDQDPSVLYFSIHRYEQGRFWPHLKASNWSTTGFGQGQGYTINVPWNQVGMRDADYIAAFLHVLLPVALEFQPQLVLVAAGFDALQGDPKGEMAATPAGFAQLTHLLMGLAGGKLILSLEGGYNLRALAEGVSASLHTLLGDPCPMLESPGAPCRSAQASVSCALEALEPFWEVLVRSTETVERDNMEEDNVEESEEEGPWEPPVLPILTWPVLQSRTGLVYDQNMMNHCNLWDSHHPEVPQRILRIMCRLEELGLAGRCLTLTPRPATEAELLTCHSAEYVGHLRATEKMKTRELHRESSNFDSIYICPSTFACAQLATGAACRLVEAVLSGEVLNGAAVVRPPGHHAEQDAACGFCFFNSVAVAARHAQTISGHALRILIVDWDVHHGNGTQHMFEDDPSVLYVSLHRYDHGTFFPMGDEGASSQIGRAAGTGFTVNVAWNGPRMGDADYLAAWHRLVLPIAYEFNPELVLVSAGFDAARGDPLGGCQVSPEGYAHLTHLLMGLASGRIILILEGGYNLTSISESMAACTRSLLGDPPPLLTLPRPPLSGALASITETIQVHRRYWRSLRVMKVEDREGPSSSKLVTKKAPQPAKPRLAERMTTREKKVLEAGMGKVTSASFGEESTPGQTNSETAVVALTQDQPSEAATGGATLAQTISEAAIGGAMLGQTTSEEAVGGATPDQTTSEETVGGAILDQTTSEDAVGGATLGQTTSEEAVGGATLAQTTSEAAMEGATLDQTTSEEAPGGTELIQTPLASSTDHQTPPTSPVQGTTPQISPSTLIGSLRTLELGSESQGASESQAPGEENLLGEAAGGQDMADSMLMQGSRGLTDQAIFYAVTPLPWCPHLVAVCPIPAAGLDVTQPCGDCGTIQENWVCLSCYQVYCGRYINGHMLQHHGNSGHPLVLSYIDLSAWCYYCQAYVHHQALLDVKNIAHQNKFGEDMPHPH
- protocol-details: Inhibition of HDAC6 (unknown origin)
measurement-label: IC50 (nM)
Express the result in nM but write the number alone.

[
  {
    "test-smiles": "CCN(CC)CCNC(=O)c1ccc(-c2cn(CCCCCC(=O)NO)nn2)cn1",
    "IC50 (nM)": 170
  }
]

With those in mind, consider the next molecule.
Q. Hello, I am looking for reported IC50 with UniProt Q9UBN7 for CCN(CC)CCNC(=O)c1ccc(-c2cn(CCCCCCC(=O)NO)nn2)cn1 . Could you help?
A. 34

====

- Test system: A-375
- protocol-details: Cytotoxicity against human A375 cells assessed as growth inhibition after 72 hrs by MTS assay
- Format: functional, cell-based
- run-conditions: A-375, 72 h
Collected IC50 values appear next to each entry.
// units = µM; emit number, no label

Q. // returns reported IC50 for input CCN(CC)CCNC(=O)c1ccc(-c2cn(CCCCCCC(=O)NO)nn2)cn1
A. 47.2

Q. I would be grateful if you could share the reported IC50 for CCN(CC)CCNC(=O)c1ccc(C(=O)ONC(=O)CCCCCn2cc(-c3ccc4cc(OC)ccc4c3)nn2)cc1 .
A. 25.9

Q. I have this molecule here, CCN(CC)CCNC(=O)c1ccc(-c2cn(CCCCCCC(=O)NO)nn2)cc1 , and I need its recorded IC50.
A. 23.6

Q. Form field: reported IC50 of COc1ccc2cc(-c3cn(CCCCCC(=O)NO)nn3)ccc2c1
A. 12.6

====

Endpoint: IC50. System: Histone deacetylase 1 (Homo sapiens, UniProt Q13547). Items follow.
Sequence (Q13547 whole entry): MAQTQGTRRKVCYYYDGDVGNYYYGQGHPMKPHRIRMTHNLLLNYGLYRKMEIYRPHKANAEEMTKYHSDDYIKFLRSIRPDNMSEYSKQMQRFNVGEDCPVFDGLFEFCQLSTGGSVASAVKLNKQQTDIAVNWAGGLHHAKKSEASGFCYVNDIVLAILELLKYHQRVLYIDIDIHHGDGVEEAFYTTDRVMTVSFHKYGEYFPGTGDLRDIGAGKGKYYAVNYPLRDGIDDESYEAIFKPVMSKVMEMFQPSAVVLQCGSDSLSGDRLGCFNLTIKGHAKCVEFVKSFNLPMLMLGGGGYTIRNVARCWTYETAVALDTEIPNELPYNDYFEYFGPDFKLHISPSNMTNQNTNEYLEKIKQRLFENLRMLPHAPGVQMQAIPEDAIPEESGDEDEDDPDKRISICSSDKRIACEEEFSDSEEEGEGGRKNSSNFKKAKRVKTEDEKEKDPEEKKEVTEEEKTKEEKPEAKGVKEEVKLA
Report the value in nM with no unit label.

[
  {
    "test-smiles": "CCN(CC)CCNC(=O)c1ccc(-c2cn(CCCCCCC(=O)NO)nn2)cn1",
    "target-desc": "Histone deacetylase 1 (Homo sapiens, UniProt Q13547)",
    "readout-number": 17
  }
]

Shifting focus to the compound that follows.
Q. I would be grateful if you could share the reported IC50 for CCN(CC)CCNC(=O)c1ccc(-c2cn(CCCCCCCC(=O)NO)nn2)cc1 .
A. 12
